target: UniProt Q16790
PROPERTY_NAME: Ki (nM)

structure=CN(C)c1ccc2c(-c3ccc(NC(=S)NCCCOc4ccc(S(N)(=O)=O)cc4)cc3C(=O)O)c3ccc(=[N+](C)C)cc-3oc2c1 target_or_test_system="UniProt Q16790" property_name=Ki value_measured=7.9
structure=CC(C)(C)OC(=O)NCCCOc1ccc(S(N)(=O)=O)cc1 target_or_test_system="UniProt Q16790" property_name=Ki value_measured=5.8
structure=NS(=O)(=O)c1ccc(OCCCNC(=S)Nc2ccc(-c3c4ccc(=O)cc-4oc4cc(O)ccc34)c(C(=O)O)c2)cc1 target_or_test_system="UniProt Q16790" property_name=Ki value_measured=7.2
structure=NCCCCCOc1ccc(S(N)(=O)=O)cc1 target_or_test_system="UniProt Q16790" property_name=Ki value_measured=6.6
structure=CC(C)(C)OC(=O)NCCCCCCOc1ccc(S(N)(=O)=O)cc1 target_or_test_system="UniProt Q16790" property_name=Ki value_measured=6.9
structure=NS(=O)(=O)c1ccc(OCCNC(=S)Nc2ccc(-c3c4ccc(=O)cc-4oc4cc(O)ccc34)c(C(=O)O)c2)cc1 target_or_test_system="UniProt Q16790" property_name=Ki value_measured=8.5
structure=CC(C)(C)OC(=O)NCCCCCOc1ccc(S(N)(=O)=O)cc1 target_or_test_system="UniProt Q16790" property_name=Ki value_measured=7.1
